target: Cyclin-dependent kinase 5 (Homo sapiens); test: Inhibition of CDK5 (unknown origin)
Sequence (Q00535 whole entry): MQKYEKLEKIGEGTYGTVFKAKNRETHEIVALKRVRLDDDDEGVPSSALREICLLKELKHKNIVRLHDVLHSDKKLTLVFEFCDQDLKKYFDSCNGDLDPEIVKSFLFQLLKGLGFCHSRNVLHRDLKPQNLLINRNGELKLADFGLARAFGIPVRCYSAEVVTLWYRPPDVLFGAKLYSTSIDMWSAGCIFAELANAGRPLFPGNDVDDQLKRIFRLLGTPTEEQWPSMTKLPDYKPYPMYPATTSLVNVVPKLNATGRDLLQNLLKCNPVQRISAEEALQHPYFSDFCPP
quantity: pIC50
Conceptually, pIC50 converts a concentration in mol/L into minus its log10.

**Query** Using the record for CN1CC[C@@H](c2c(O)cc(O)c3c(=O)cc(-c4ccc(C(F)(F)F)cc4Cl)oc23)[C@@H]1CO , report its pIC50.
**Result** 6.68

====

molecular target: CDK6/cyclin D3 (Homo sapiens, UniProt Q00534); assay: Inhibition of human CDK6/Cyclin D3 in presence of gamma32P-ATP by scintillation counter analysis
Sequence (P30281 whole entry): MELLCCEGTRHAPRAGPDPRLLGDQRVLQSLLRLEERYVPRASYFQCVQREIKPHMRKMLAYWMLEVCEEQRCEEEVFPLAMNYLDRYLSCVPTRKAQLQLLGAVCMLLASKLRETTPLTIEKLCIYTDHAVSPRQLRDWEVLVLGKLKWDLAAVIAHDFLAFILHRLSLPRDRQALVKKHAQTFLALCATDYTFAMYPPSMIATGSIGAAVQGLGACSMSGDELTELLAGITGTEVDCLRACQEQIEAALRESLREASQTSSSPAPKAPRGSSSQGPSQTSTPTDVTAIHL
Sequence (Q00534 whole entry): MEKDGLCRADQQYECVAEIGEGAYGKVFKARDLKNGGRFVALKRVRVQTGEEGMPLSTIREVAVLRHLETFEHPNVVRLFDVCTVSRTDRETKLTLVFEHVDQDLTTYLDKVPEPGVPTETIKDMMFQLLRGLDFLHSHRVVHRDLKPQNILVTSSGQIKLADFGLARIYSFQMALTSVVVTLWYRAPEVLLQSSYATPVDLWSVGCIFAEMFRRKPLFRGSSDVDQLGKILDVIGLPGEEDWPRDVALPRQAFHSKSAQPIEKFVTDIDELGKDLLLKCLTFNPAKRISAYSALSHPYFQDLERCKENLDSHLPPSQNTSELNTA
quantity: IC50 (nM)
Use nM as the unit, but write only the number.

**Query** Find the measured IC50: item CN1CCC(c2c(O)cc(O)c3c(=O)cc(-c4ccccc4Cl)oc23)C1CO (stereo unspecified) [RIVICICLIB] , target or system CDK6/cyclin D3 (Homo sapiens, UniProt Q00534).
**Result** 396

====

assay: Inhibition of CDK4/Cyclin D (unknown origin); set-up: species or system Homo sapiens
quantity: pIC50
A value of pIC50 is the negative decimal logarithm of a concentration given in moles per litre.

**Query** Give the measured pIC50 of Nc1nc(N[C@H]2CC3CCC2C3)sc1C(=O)c1ccccc1[N+](=O)[O-] (stereo partly specified) .
**Result** 6.95

====

target: Cyclin-dependent kinase 4 (Homo sapiens, UniProt P11802); assay: Inhibition of CDK4 (unknown origin)
Sequence (P11802 whole entry): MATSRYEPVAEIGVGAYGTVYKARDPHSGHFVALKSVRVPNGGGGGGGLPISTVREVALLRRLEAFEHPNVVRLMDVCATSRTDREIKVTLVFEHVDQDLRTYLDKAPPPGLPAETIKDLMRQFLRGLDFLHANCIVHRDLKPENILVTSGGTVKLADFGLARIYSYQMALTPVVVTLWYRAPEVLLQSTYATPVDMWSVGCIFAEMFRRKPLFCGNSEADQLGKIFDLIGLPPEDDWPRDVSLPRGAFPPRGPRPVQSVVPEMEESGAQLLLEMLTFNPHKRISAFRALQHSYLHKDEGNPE
quantity: IC50 (µM)
Answer with a number only, understood to be in µM.

**Query** Given the compound Fc1ccc(N2CCCCC2)c(NC(=S)c2ccncc2)c1 , what is its reported IC50?
**Result** 30

====

target: UniProt Q07002; assay: Inhibition of CDK18 (unknown origin) by Kinomescan method
Sequence (Q07002 whole entry): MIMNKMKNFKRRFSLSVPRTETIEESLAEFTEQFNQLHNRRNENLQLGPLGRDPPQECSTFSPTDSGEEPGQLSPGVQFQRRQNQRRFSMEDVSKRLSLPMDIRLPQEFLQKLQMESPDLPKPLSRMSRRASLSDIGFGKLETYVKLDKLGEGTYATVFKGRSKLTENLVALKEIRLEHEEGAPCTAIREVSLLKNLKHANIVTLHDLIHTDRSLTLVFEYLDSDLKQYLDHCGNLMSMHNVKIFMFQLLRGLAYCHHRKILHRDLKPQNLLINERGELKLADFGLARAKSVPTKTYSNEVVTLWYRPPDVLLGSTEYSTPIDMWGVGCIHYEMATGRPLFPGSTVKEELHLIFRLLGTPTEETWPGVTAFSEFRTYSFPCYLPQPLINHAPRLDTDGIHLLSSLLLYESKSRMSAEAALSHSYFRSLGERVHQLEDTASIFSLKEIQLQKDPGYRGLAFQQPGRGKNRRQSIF
quantity: pIC50
Recall that pIC50 is obtained by taking minus log10 of the concentration measured in molar.

**Query** Give pIC50 (UniProt Q07002) of the following molecule: COC[C@@H](C)N[C@H]1CC[C@H](Nc2cc(-c3cccc(NCC4(C#N)CCOCC4)n3)c(Cl)cn2)CC1
**Result** 5.31

====

test: Inhibition of CDK7/Cyclin H/MAT1 (unknown origin); parameters: species or system Homo sapiens
quantity: IC50
Dear colleague, please send the value followed by its unit.

**Query** Which IC50 is listed for Nc1nc(N[C@H]2CC3CCC2C3)sc1C(=O)c1ccccc1[N+](=O)[O-] (stereo partly specified) ?
**Result** 555 nM

====

biological target: Cyclin-dependent kinase 1/cyclin B1 (Homo sapiens, UniProt P06493); experiment: Inhibition of CDK1/cyclin B1 (unknown origin) assessed as substrate phosphorylation using ULight MBP peptide as substrate in presence of ATP incubated for 1 hr by FRET based LANCE Ultra KinaSelect screen assay
Sequence (P06493 whole entry): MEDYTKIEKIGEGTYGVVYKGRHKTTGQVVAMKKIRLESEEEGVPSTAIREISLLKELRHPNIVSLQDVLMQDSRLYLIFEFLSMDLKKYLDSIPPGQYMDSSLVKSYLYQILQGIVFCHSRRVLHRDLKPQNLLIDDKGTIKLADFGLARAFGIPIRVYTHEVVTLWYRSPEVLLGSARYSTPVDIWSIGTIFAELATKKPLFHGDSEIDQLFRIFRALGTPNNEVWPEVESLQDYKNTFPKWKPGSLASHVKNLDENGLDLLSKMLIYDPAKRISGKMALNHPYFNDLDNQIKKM
Sequence (P14635 whole entry, further chain): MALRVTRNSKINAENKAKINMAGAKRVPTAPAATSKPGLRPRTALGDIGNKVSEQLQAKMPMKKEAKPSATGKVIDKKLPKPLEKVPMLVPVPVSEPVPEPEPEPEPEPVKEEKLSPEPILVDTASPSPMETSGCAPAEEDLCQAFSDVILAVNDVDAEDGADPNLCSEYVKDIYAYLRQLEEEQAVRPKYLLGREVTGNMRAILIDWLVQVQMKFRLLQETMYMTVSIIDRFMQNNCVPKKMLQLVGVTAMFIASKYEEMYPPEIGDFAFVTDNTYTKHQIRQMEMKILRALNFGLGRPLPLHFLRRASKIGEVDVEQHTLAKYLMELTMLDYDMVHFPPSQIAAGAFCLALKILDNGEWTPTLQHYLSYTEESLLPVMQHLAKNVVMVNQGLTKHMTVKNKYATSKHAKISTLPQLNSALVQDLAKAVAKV
quantity: pIC50
# log scale: pIC50 equals minus log10 of the concentration in mol/L

**Query** Quick one: pIC50 for COc1ccccc1-c1cc(Nc2cccc(CS(N)(=O)=O)c2)ncn1 ?
**Result** 5.26

====

molecular target: Cyclin-dependent kinase 6 (Homo sapiens, UniProt Q00534); assay: Inhibition of CDK6 (unknown origin) incubated for 120 mins in presence of ATP by HotSpot kinase assay
pIC50: −log10 of the molar value.
quantity: pIC50

**Query** # lookup: pIC50 of CCCc1cc(N[C@@H]2CC[C@@H](N)C2)n2nccc2n1
**Result** < 5.92

The measured values listed here are drawn from ChEMBL document CHEMBL5223102.
